Property: z-score; scope: individual compounds
assay: modulators of HCV replicon luciferase signal, primary screen, HCV replication inhibitor project, Huh7 cells, luciferase reporter (AID 1109); conditions: 48 h, higher = more signal;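 further: huh7 hepatoma cells harbouring a luciferase neomycin HCV replicon reporter; luciferase luminescence as measure of HCV replicon replication; test concentration not given here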

Compound	z-score
COc1cccc([C@H]2Oc3ccc(OC)cc3C(=NO[C@H](C)c3cn([C@H](CO)Cc4ccccc4)nn3)[C@@H]2O)c1	-1.74
CCOC(=O)[C@H](Cc1ccccc1)NC(=O)CCC1CC(OC(=O)NCc2cccc3ccccc23)CC2(CCCC(COC(=O)NCCC(C)C)O2)O1 (stereo partly specified)	-0.134
C[C@@H]1CC[C@H]2C(=O)O[C@@H](Cc3ccccc3)CN2[C@H]1c1ccc(Br)cc1	0.166
CC(CCN1CCCCc2nc(C)c(C)cc21)=NO[C@H](C)c1cn([C@H](CO)Cc2ccccc2)nn1	-1.13
Cn1c(=O)n2n(c1=O)[C@H]1[C@H](O)[C@@H]3O[C@@H]3C(=O)[C@H]1CC2	0.101
COC(=O)[C@@H]1CC[C@H](C)[C@@H](c2ccc(C)cc2)N1C(=O)c1ccc(C=NO[C@@H](C)c2cn([C@H](CO)Cc3ccccc3)nn2)cc1	-2.25
CO[C@H]1COC(=O)CC=C[C@@H](C)[C@H](OC)COC(=O)[C@@H]2CCCN2C(=O)CC=C[C@@H]1C	0.443
COc1ccc(COC(=O)NN=C2C[C@@H](O)[C@@H](O)[C@@H]3[C@@H]4C(=O)N(C5CCCCC5)C(=O)[C@@H]4CC[C@H]23)cc1	-2.37
C[C@H]1CC[C@H]2C(=O)O[C@H](COc3ccc(C(C)(C)C)cc3)CN2[C@@H]1c1ccc(Br)cc1	-0.145
CO[C@H]1COC(=O)[C@H](C)NC(=O)[C@@H](C)COC(=O)[C@H]2CCCN2C(=O)CC=C[C@H]1C	-0.328
CCc1cc2c(nc1CC)CCN(CCC(C)=NO[C@@H](C)c1cn([C@H](CO)Cc3ccccc3)nn1)C2	-2.1
COc1ccc(COC(=O)NN=C2C[C@@H](O)[C@@H](O)[C@@H]3[C@@H]4C(=O)N(c5ccc(F)cc5F)C(=O)[C@@H]4CC[C@H]23)cc1	-0.107
COC(=O)CC=C[C@@H](C)[C@@H](C=NOC[C@H]1O[C@H](c2ccccc2)C=C[C@@H]1Oc1ccc(OC)cc1)OC	-1.7
CC(C)CON=C1C[C@@H](O)[C@@H](O)[C@@H]2[C@@H]3C(=O)N(c4cccc(Oc5ccccc5)c4)C(=O)[C@@H]3CC[C@@H]12	0.251
COc1ccc(O[C@H]2C=C[C@@H](c3ccccc3)O[C@@H]2CON=C(C)CCN2CCc3nc(-c4ccccc4)c(-c4ccccc4)cc3C2)cc1	-3.38
CC(C)CON=C1C[C@@H](O)[C@@H](O)[C@@H]2[C@@H]3C(=O)N(C[C@@H]4CCCO4)C(=O)[C@@H]3CC[C@@H]12	0.444
C[C@@H]1CC[C@H]2C(=O)O[C@@H](COc3ccc(C(C)(C)C)cc3)CN2[C@@H]1c1ccc(Br)cc1	-0.0485
O=c1n(-c2ccccc2)c(=O)n2n1CC[C@@H]1C(=NOCc3ccccc3)[C@H]3O[C@H]3[C@@H](O)[C@@H]12	-2.05
CCCCc1nc2c(c3c1C[C@H](C)OC3)CN(CCOc1ccccc1)CC2	-0.659
CC(CCN1CCCCc2nc(C)c(C)cc21)=NO[C@@H](C)c1cn([C@H](CO)Cc2ccccc2)nn1	-0.507
O=C1CCCC=C1C(CCc1ccccc1)OC(=O)c1ccc(Br)cc1 (stereo unspecified)	1.15
CCOC(=O)[C@H](CC(C)C)NC(=O)CCC1CC(OC(=O)NCc2cccc3ccccc23)CC2(CCCC(COC(=O)NCCOc3ccccc3)O2)O1 (stereo partly specified)	-0.687
CCOC(=O)[C@H](CC(C)C)NC(=O)CCC1CC(OC(=O)NCc2ccc3c(c2)OCO3)CC2(CCCC(COC(=O)NCC(c3ccccc3)c3ccccc3)O2)O1 (stereo partly specified)	-0.0319
CO[C@@H]1COC(=O)CC=C[C@H](C)[C@H](OC)COC(=O)[C@H](C)NC(=O)CC=C[C@H]1C	1.39
O=C1C[C@@H](O)[C@@H](O)[C@@H]2[C@@H]3C(=O)N(C[C@@H]4CCCO4)C(=O)[C@@H]3CC[C@H]12	0.624
CCC=CCCC(OC(=O)c1ccc(Br)cc1)C1=CCCCC1=O (stereo unspecified)	-2.38
CCN1C(=O)[C@H]2[C@H]3[C@H](O)[C@H](O)CC(=O)[C@H]3CC[C@H]2C1=O	-0.693
CSCC[C@@H]1NC(=O)CC=C[C@@H](C)COC(=O)[C@@H](C)COC1=O	0.371
CO[C@@H]1COC(=O)[C@H](CCSC)NC(=O)CC=C[C@@H](C)COC(=O)CCC[C@H]1C	-0.346
CCO[C@H](c1cc(OC)cc([N+](=O)[O-])c1OC)[C@H](C)C=CCC(=O)OC	0.265
C[C@H]1Cc2c(COc3ccccc3)nc3c(c2CO1)CN(CCOc1ccccc1)CC3	-0.228
